# System: L1210 leukemia ip in BDF1 mice, survival T/C
# Experiment Notes: NCI In Vivo Anticancer Drug Screen. Data for tumor model L1210 Leukemia (intraperitoneal) in B6D2F1 (BDF1) mice
# Condition Notes: endpoint: mean survival time; dose: 25.0 mg/kg/injection; schedule: Q01DX009 (ip); vehicle: saline with Tween-80; higher = longer survival
Inconclusive results and toxic doses are left out.
Metric Name: T/C

query: Tell me its T/C given CCC(CC)COCCCN as the entry.
result: 98 % of control

query: State its T/C: Cc1cc(C)c(CN)cc1CN
result: 95 % of control

query: Find the measured T/C of Cc1cc(OC(=O)Nc2ccc(Cl)cc2Cl)c(C)cc1Cl and report it.
result: 91 % of control

query: Using the record for O=C(Nc1ccccc1F)c1ccc(C(=O)Nc2ccccc2F)cc1 , state its measured T/C.
result: 86 % of control

query: Retrieve T/C measured for COc1nc(C)c(C)[n+]([O-])n1 and print it.
result: 108 % of control

query: Supply recorded T/C for C[n+]1c(/C=C/c2ccc3cccc(O)c3n2)ccc2cccc(O)c21 here.
result: 95 % of control

query: In one line, give reported T/C of the entry CC(=O)Nc1ccc2c(c1)C[N+](C)(C1CCCCC1)CO2 (configuration not stated) .
result: 101 % of control

query: Tell us which T/C value is on record for COc1ccc(N=NN(C)C)cc1
result: 100 % of control

query: For the compound CSC(=N)c1cccc(OCCCc2ccccc2)c1 , give its measured T/C value.
result: 92 % of control

query: Fill in reported T/C for this entry: CCCCOc1ccc(C(=O)NN)cc1
result: 93 % of control

query: Given the compound O=C(O)CN1C(=O)c2ccccc2C1=O , write its reported T/C.
result: 91 % of control

query: Please report the measured T/C for NC(=S)N/N=C/c1cc(-c2cccc(N)c2)ccn1
result: 114 % of control

###

Each entry below lists one item and its recorded T/C value.
# System: L1210 leukemia ip in BDF1 mice, survival T/C
# Experiment Notes: NCI In Vivo Anticancer Drug Screen. Data for tumor model L1210 Leukemia (intraperitoneal) in B6D2F1 (BDF1) mice
# Condition Notes: endpoint: mean survival time; dose: 100.0 mg/kg/injection; schedule: Q01DX009 (ip); vehicle: Klucel (hydroxypropylcellulose) (HPC); higher = longer survival
Toxic doses and inconclusive results are not listed.

Check out these entries, answers already filled in.
{"columns": ["Compound", "T/C"],
 "data": [
  ["CCCC(C)Cc1ccc(C(C)=O)cc1 (configuration not stated)", "106 % of control"],
  ["COc1ccccc1NC(=O)c1ccc(Cl)cc1Cl", "98 % of control"],
  ["COc1ccc(NC(=O)Nc2cc(Cl)ccc2OC)c(OC)c1", "94 % of control"],
  ["COc1ccc(Br)c(CCC(C)C)c1OC", "92 % of control"],
  ["CCOC(=O)c1nnc(-c2ccc(C)cc2)[nH]c1=O", "95 % of control"],
  ["Cc1cccc(NC(=O)CCl)c1C", "100 % of control"],
  ["COc1ccc(/C=C(C(=O)O)/C(=C/c2ccc(OC)c(OC)c2)C(=O)O)cc1OC", "96 % of control"],
  ["COc1ccc(/C=C2\\NC(=O)NC2=O)cc1Br", "93 % of control"],
  ["CCCC1(C)COB(c2ccc(C)cc2)OC1", "114 % of control"],
  ["O=S(NOCc1ccccc1)c1ccc(Cl)cc1 (configuration not stated)", "93 % of control"]
]}

query: Look up and report measured T/C for this entry: CCOC(=O)Nc1ccc(NC(=O)OCC)cc1
result: 89 % of control

query: Identify measured T/C corresponding to Cc1cccc(Cl)c1NC(=O)c1cccc([N+](=O)[O-])c1
result: 96 % of control

###

# Tested on: L1210 leukemia ip in BDF1 mice, survival T/C
# Experiment Notes: NCI In Vivo Anticancer Drug Screen. Data for tumor model L1210 Leukemia (intraperitoneal) in B6D2F1 (BDF1) mice
# Condition Notes: endpoint: mean survival time; dose: 400.0 mg/kg/injection; schedule: Q04DX003 (ip); vehicle: Klucel (hydroxypropylcellulose) (HPC); higher = longer survival
Inconclusive results and toxic doses are left out.
Metric Name: T/C

Solved cases (8 shown):
{"columns": ["Molecule", "T/C"],
 "data": [
  ["Cc1cccc(NC(=O)CCl)c1", "99 % of control"],
  ["c1ccc2c3c(ccc2c1)CCC/C3=N\\N=C1/CCCc2ccc3ccccc3c21", "92 % of control"],
  ["C#CCCCCC#C", "86 % of control"],
  ["COc1cccc(CNc2ccc(SC)cc2)c1OC", "91 % of control"],
  ["COc1ccc(Br)c(CCC(C)C)c1OC", "104 % of control"],
  ["O=C(c1ccccc1)c1nnc(C(=O)c2ccccc2)nn1", "93 % of control"],
  ["O=CN/N=C/c1cc(Cl)cc(Cl)c1O", "94 % of control"],
  ["O=[N+]([O-])c1ccc2c(c1)=N/C(=N\\c1nc(O)c(O)[nH]1)N=2", "104 % of control"]
]}

query: Please indicate T/C recorded for CCOc1ccccc1NC(=O)Nc1ccccc1OC
result: 100 % of control

query: Recall and state the measured T/C for NC(=O)c1ccc(C(F)(F)F)cc1O .
result: 95 % of control

query: Given the molecule CCOc1ccc(NC(=S)NC(=O)c2ccco2)cc1 , write its reported T/C.
result: 100 % of control

query: Return T/C for the following molecule: O=C(O)CCc1ccc([N+](=O)[O-])cc1Cl
result: 101 % of control

query: Please give measured T/C of the following entry: COc1ccc(C2CCC(=O)CC2C(=O)O)cc1 (configuration not stated)
result: 93 % of control

query: Annotate the molecule OCCc1cc2ccccc2s1 with its measured T/C.
result: 113 % of control

query: Consider the molecule COC(=O)C1C(C(=O)OC)C2(Cl)C(Cl)=C(Cl)C1(Cl)C2(Br)Br (configuration not stated) and give its recorded T/C.
result: 104 % of control

query: Query T/C for CC1(C)Oc2nc(N)nc(N)c2C1c1ccc(Cl)cc1 (configuration not stated)
result: 103 % of control

query: State its T/C: CCN(CC)c1ccc(Cc2ccc(N(CC)CC)cc2Br)c(Br)c1
result: 94 % of control

query: Quote T/C reported for CCCCC1=C(c2ccccc2)C(=O)OC1=O please.
result: 89 % of control

query: Name the recorded T/C of the item O=c1[nH]c2ccccc2nc1C(Br)Br in your answer.
result: 97 % of control

query: Give a short answer stating reported T/C for CN(C)CC1CCCCC1=O (configuration not stated) .
result: 97 % of control

###

Consider the following molecules and their measured T/C readings.
# Test system: L1210 leukemia ip in BDF1 mice, survival T/C
# Experiment Notes: NCI In Vivo Anticancer Drug Screen. Data for tumor model L1210 Leukemia (intraperitoneal) in B6D2F1 (BDF1) mice
# Condition Notes: endpoint: mean survival time; dose: 100.0 mg/kg/injection; schedule: Q01DX001 (ip); vehicle: saline; higher = longer survival
Inconclusive results and toxic doses are left out.

Recorded results for 5 molecules are shown here.
{"columns": ["Molecule", "System Name", "T/C"],
 "data": [
  ["CCOC(=O)/C(O)=C\\c1cc(Br)c(OC)cc1[N+](=O)[O-]", "L1210 leukemia ip in BDF1 mice, survival T/C", "102 % of control"],
  ["CCCCCCC1(C)CCC(=O)O1 (centres undefined)", "L1210 leukemia ip in BDF1 mice, survival T/C", "94 % of control"],
  ["CC(C)C1=CC23CCC4C(C)(C(=O)O)CCCC4(C)C2CC1C1C(=O)c2ccccc2C(=O)C13 (centres undefined)", "L1210 leukemia ip in BDF1 mice, survival T/C", "90 % of control"],
  ["CC1(c2ccncc2)OCCO1", "L1210 leukemia ip in BDF1 mice, survival T/C", "97 % of control"],
  ["CCCCC(=O)N/N=C/c1ccc(OC)c(O)c1", "L1210 leukemia ip in BDF1 mice, survival T/C", "109 % of control"]
]}

query: // fetch T/C given entry Nc1c(Cl)ccc2c(Cl)ccnc12
result: 111 % of control

query: Identify measured T/C associated with CCOC(=O)c1c[nH]c2nc(N)ccc2c1=O
result: 106 % of control

query: Quickly give me recorded T/C for CC(=O)Nc1c(NN=C(C)C)[nH]c(=O)[nH]c1=O
result: 96 % of control

query: Complete the entry with T/C for COC(=O)C1OC(CO)C(O)C1O (centres undefined)
result: 105 % of control

query: Please give measured T/C of the following entry: CC(C)C1(NC(=O)C2C=C3c4cccc5[nH]cc(c45)CC3N(C)C2)OC2(O)C3CCCN3C(=O)C(Cc3ccccc3)N2C1=O (centres undefined) (tested in a mixture with another compound)
result: 107 % of control

query: Tell us which T/C value is on record for CCOP(=S)(Nc1cccc(C(F)(F)F)c1)OCC
result: 102 % of control

query: Identify measured T/C associated with O=C1Cc2ccccc2C(=O)N1Nc1ccccc1
result: 101 % of control

query: Complete the entry with T/C for C#CCNCc1ccccc1
result: 100 % of control

query: Supply reported T/C belonging to this molecule: Cc1ccc(Br)cc1C(c1cc(Br)ccc1C)C(O)C(O)C(O)C(O)CO (centres undefined)
result: 106 % of control
